These data points were gathered from the supplement of paper PMC6555819.

Test system: THRa homodimer (NR concentration 90 nM)
Assay: PBM binding z-score (relative to random genomic background probes); higher = stronger binding; sequences stand for … in GC…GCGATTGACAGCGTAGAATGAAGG

[
  {
    "PRIMARY_SEQUENCE": "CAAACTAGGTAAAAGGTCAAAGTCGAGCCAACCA",
    "STUDY_SYSTEM": "THRa homodimer (NR concentration 90 nM)",
    "PBM binding z-score": 1.07
  },
  {
    "PRIMARY_SEQUENCE": "TCGAGTAGGTTAGGGGCGTTCAGAATGGCGTCGA",
    "STUDY_SYSTEM": "THRa homodimer (NR concentration 90 nM)",
    "PBM binding z-score": -0.0731
  },
  {
    "PRIMARY_SEQUENCE": "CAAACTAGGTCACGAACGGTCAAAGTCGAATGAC",
    "STUDY_SYSTEM": "THRa homodimer (NR concentration 90 nM)",
    "PBM binding z-score": 1.74
  },
  {
    "PRIMARY_SEQUENCE": "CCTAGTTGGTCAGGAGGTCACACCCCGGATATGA",
    "STUDY_SYSTEM": "THRa homodimer (NR concentration 90 nM)",
    "PBM binding z-score": 2.36
  },
  {
    "PRIMARY_SEQUENCE": "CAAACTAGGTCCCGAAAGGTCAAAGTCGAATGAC",
    "STUDY_SYSTEM": "THRa homodimer (NR concentration 90 nM)",
    "PBM binding z-score": 1.43
  },
  {
    "PRIMARY_SEQUENCE": "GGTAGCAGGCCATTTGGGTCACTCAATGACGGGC",
    "STUDY_SYSTEM": "THRa homodimer (NR concentration 90 nM)",
    "PBM binding z-score": 0.696
  },
  {
    "PRIMARY_SEQUENCE": "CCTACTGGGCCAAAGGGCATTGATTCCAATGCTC",
    "STUDY_SYSTEM": "THRa homodimer (NR concentration 90 nM)",
    "PBM binding z-score": -0.934
  },
  {
    "PRIMARY_SEQUENCE": "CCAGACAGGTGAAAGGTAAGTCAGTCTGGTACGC",
    "STUDY_SYSTEM": "THRa homodimer (NR concentration 90 nM)",
    "PBM binding z-score": 0.0448
  },
  {
    "PRIMARY_SEQUENCE": "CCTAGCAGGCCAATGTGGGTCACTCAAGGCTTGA",
    "STUDY_SYSTEM": "THRa homodimer (NR concentration 90 nM)",
    "PBM binding z-score": -0.567
  },
  {
    "PRIMARY_SEQUENCE": "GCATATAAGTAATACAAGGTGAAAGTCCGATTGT",
    "STUDY_SYSTEM": "THRa homodimer (NR concentration 90 nM)",
    "PBM binding z-score": 0.985
  },
  {
    "PRIMARY_SEQUENCE": "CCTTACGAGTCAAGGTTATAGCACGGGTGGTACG",
    "STUDY_SYSTEM": "THRa homodimer (NR concentration 90 nM)",
    "PBM binding z-score": 0.715
  },
  {
    "PRIMARY_SEQUENCE": "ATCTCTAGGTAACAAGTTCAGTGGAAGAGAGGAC",
    "STUDY_SYSTEM": "THRa homodimer (NR concentration 90 nM)",
    "PBM binding z-score": 1.13
  },
  {
    "PRIMARY_SEQUENCE": "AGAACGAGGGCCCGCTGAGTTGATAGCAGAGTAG",
    "STUDY_SYSTEM": "THRa homodimer (NR concentration 90 nM)",
    "PBM binding z-score": -0.89
  },
  {
    "PRIMARY_SEQUENCE": "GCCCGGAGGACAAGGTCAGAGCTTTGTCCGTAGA",
    "STUDY_SYSTEM": "THRa homodimer (NR concentration 90 nM)",
    "PBM binding z-score": 1.67
  },
  {
    "PRIMARY_SEQUENCE": "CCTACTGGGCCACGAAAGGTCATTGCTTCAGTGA",
    "STUDY_SYSTEM": "THRa homodimer (NR concentration 90 nM)",
    "PBM binding z-score": 0.827
  },
  {
    "PRIMARY_SEQUENCE": "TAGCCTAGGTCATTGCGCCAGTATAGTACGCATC",
    "STUDY_SYSTEM": "THRa homodimer (NR concentration 90 nM)",
    "PBM binding z-score": 1.07
  },
  {
    "PRIMARY_SEQUENCE": "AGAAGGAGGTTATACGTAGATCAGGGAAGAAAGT",
    "STUDY_SYSTEM": "THRa homodimer (NR concentration 90 nM)",
    "PBM binding z-score": 0.665
  },
  {
    "PRIMARY_SEQUENCE": "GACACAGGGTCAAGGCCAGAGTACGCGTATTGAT",
    "STUDY_SYSTEM": "THRa homodimer (NR concentration 90 nM)",
    "PBM binding z-score": 0.875
  },
  {
    "PRIMARY_SEQUENCE": "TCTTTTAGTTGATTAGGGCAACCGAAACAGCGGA",
    "STUDY_SYSTEM": "THRa homodimer (NR concentration 90 nM)",
    "PBM binding z-score": 0.745
  },
  {
    "PRIMARY_SEQUENCE": "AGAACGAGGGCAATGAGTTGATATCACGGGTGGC",
    "STUDY_SYSTEM": "THRa homodimer (NR concentration 90 nM)",
    "PBM binding z-score": -0.128
  },
  {
    "PRIMARY_SEQUENCE": "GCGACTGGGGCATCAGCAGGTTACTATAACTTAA",
    "STUDY_SYSTEM": "THRa homodimer (NR concentration 90 nM)",
    "PBM binding z-score": 0.104
  },
  {
    "PRIMARY_SEQUENCE": "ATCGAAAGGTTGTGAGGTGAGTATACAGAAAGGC",
    "STUDY_SYSTEM": "THRa homodimer (NR concentration 90 nM)",
    "PBM binding z-score": 1.49
  },
  {
    "PRIMARY_SEQUENCE": "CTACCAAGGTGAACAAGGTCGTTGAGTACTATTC",
    "STUDY_SYSTEM": "THRa homodimer (NR concentration 90 nM)",
    "PBM binding z-score": 1.83
  },
  {
    "PRIMARY_SEQUENCE": "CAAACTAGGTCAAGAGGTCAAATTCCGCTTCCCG",
    "STUDY_SYSTEM": "THRa homodimer (NR concentration 90 nM)",
    "PBM binding z-score": 2.73
  },
  {
    "PRIMARY_SEQUENCE": "TCTAGCAGGCCAGAGGGTTACTCAAGAGGTACGG",
    "STUDY_SYSTEM": "THRa homodimer (NR concentration 90 nM)",
    "PBM binding z-score": -1.11
  },
  {
    "PRIMARY_SEQUENCE": "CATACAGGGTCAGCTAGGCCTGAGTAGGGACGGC",
    "STUDY_SYSTEM": "THRa homodimer (NR concentration 90 nM)",
    "PBM binding z-score": 0.977
  },
  {
    "PRIMARY_SEQUENCE": "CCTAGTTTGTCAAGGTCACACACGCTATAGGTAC",
    "STUDY_SYSTEM": "THRa homodimer (NR concentration 90 nM)",
    "PBM binding z-score": 4.77
  },
  {
    "PRIMARY_SEQUENCE": "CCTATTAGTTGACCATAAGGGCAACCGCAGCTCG",
    "STUDY_SYSTEM": "THRa homodimer (NR concentration 90 nM)",
    "PBM binding z-score": 1.49
  },
  {
    "PRIMARY_SEQUENCE": "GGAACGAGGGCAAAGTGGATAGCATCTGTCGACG",
    "STUDY_SYSTEM": "THRa homodimer (NR concentration 90 nM)",
    "PBM binding z-score": -0.332
  },
  {
    "PRIMARY_SEQUENCE": "TCTTGTAGATCAATAGAGGGTAAGAAAGTGCGCT",
    "STUDY_SYSTEM": "THRa homodimer (NR concentration 90 nM)",
    "PBM binding z-score": -0.673
  },
  {
    "PRIMARY_SEQUENCE": "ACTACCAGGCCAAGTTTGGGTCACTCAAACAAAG",
    "STUDY_SYSTEM": "THRa homodimer (NR concentration 90 nM)",
    "PBM binding z-score": 1.72
  },
  {
    "PRIMARY_SEQUENCE": "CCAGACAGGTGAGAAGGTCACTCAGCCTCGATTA",
    "STUDY_SYSTEM": "THRa homodimer (NR concentration 90 nM)",
    "PBM binding z-score": 0.916
  },
  {
    "PRIMARY_SEQUENCE": "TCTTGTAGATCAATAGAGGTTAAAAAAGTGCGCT",
    "STUDY_SYSTEM": "THRa homodimer (NR concentration 90 nM)",
    "PBM binding z-score": -0.13
  },
  {
    "PRIMARY_SEQUENCE": "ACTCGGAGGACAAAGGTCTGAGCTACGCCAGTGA",
    "STUDY_SYSTEM": "THRa homodimer (NR concentration 90 nM)",
    "PBM binding z-score": -0.424
  },
  {
    "PRIMARY_SEQUENCE": "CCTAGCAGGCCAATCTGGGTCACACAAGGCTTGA",
    "STUDY_SYSTEM": "THRa homodimer (NR concentration 90 nM)",
    "PBM binding z-score": 0.9
  },
  {
    "PRIMARY_SEQUENCE": "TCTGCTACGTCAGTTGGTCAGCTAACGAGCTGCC",
    "STUDY_SYSTEM": "THRa homodimer (NR concentration 90 nM)",
    "PBM binding z-score": -0.995
  },
  {
    "PRIMARY_SEQUENCE": "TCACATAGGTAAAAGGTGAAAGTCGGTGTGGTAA",
    "STUDY_SYSTEM": "THRa homodimer (NR concentration 90 nM)",
    "PBM binding z-score": 0.0653
  },
  {
    "PRIMARY_SEQUENCE": "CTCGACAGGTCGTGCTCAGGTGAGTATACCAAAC",
    "STUDY_SYSTEM": "THRa homodimer (NR concentration 90 nM)",
    "PBM binding z-score": 0.709
  },
  {
    "PRIMARY_SEQUENCE": "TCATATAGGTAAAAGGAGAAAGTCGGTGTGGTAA",
    "STUDY_SYSTEM": "THRa homodimer (NR concentration 90 nM)",
    "PBM binding z-score": -0.722
  },
  {
    "PRIMARY_SEQUENCE": "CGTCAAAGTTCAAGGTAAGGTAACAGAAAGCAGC",
    "STUDY_SYSTEM": "THRa homodimer (NR concentration 90 nM)",
    "PBM binding z-score": 1.85
  },
  {
    "PRIMARY_SEQUENCE": "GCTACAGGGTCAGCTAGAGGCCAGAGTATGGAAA",
    "STUDY_SYSTEM": "THRa homodimer (NR concentration 90 nM)",
    "PBM binding z-score": 0.349
  },
  {
    "PRIMARY_SEQUENCE": "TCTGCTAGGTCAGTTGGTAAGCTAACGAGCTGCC",
    "STUDY_SYSTEM": "THRa homodimer (NR concentration 90 nM)",
    "PBM binding z-score": -0.266
  },
  {
    "PRIMARY_SEQUENCE": "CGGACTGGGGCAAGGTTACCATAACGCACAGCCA",
    "STUDY_SYSTEM": "THRa homodimer (NR concentration 90 nM)",
    "PBM binding z-score": 0.546
  },
  {
    "PRIMARY_SEQUENCE": "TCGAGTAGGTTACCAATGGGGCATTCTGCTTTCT",
    "STUDY_SYSTEM": "THRa homodimer (NR concentration 90 nM)",
    "PBM binding z-score": -0.884
  },
  {
    "PRIMARY_SEQUENCE": "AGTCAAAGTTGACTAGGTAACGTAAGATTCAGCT",
    "STUDY_SYSTEM": "THRa homodimer (NR concentration 90 nM)",
    "PBM binding z-score": -0.555
  },
  {
    "PRIMARY_SEQUENCE": "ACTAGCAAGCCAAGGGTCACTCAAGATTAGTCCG",
    "STUDY_SYSTEM": "THRa homodimer (NR concentration 90 nM)",
    "PBM binding z-score": 0.0458
  },
  {
    "PRIMARY_SEQUENCE": "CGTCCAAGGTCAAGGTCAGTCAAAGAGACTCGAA",
    "STUDY_SYSTEM": "THRa homodimer (NR concentration 90 nM)",
    "PBM binding z-score": 3.61
  },
  {
    "PRIMARY_SEQUENCE": "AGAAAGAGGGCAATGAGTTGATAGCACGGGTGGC",
    "STUDY_SYSTEM": "THRa homodimer (NR concentration 90 nM)",
    "PBM binding z-score": -0.101
  },
  {
    "PRIMARY_SEQUENCE": "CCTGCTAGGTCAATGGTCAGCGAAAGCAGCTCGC",
    "STUDY_SYSTEM": "THRa homodimer (NR concentration 90 nM)",
    "PBM binding z-score": 0.558
  },
  {
    "PRIMARY_SEQUENCE": "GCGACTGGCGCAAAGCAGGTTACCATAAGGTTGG",
    "STUDY_SYSTEM": "THRa homodimer (NR concentration 90 nM)",
    "PBM binding z-score": -0.543
  },
  {
    "PRIMARY_SEQUENCE": "TAGCCTAGGTCAGATCGCGCCAGTATACGCTATA",
    "STUDY_SYSTEM": "THRa homodimer (NR concentration 90 nM)",
    "PBM binding z-score": 0.165
  }
]
